B1: KLHL14 (parent)
chain: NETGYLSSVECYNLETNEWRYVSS

# Variants of: B1
# assay comment: protein stability index of a GFP-peptide fusion (GPS, HEK-293T) (PSI 1-6); higher = more stable;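 also: lentivirally expressed fusions sorted by FACS into six bins by GFP to DsRed ratio, PSI derived from sequencing read proportions per bin multiplied by bin number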
# recorded conditions: c terminus: a fixed tail appended

# mutation descriptor, protein stability index
rows = [
    ("S8R", 2.35),
    ("S24T", 3.65),
    ("N17S", 4.14),
    ("S7E", 4.08),
    ("T3N", 3.78),
    ("T16I", 2.48),
    ("N17H", 3.31),
    ("S7Q", 3.86),
    ("N17L", 3.66),
    ("N13C", 2.06),
    ("T3A", 3.3),
    ("E2Q", 2.35),
    ("N17T", 3.01),
    ("Y12V", 4.09),
    ("C11D", 4.58),
    ("N13Y", 2.63),
    ("T16D", 4.07),
    ("V22Y", 3.02),
    ("L14P", 4.16),
    ("V9R", 3.41),
    ("E2H", 2.02),
    ("T3L", 3.08),
    ("E15D", 3.41),
    ("V9G", 3.88),
    ("T3R", 2.96),
    ("V22L", 2.81),
    ("W19Q", 4.31),
    ("Y12Q", 3.84),
    ("T16K", 2.96),
    ("W19C", 4.26),
    ("L14M", 3.46),
    ("E15L", 2.61),
    ("W19L", 4.37),
    ("T3I", 3.4),
    ("S24L", 3.41),
    ("E2K", 2.69),
    ("Y21C", 3.57),
    ("S8K", 2.85),
    ("E2M", 2.55),
    ("C11F", 2.83),
    ("E15R", 2.39),
    ("L6Y", 2.86),
    ("N13L", 1.8),
    ("L14I", 3.35),
    ("E2L", 2.09),
    ("E18T", 3.22),
    ("S23M", 3.59),
    ("E15Q", 2.58),
    ("T3S", 3.4),
    ("L14G", 3.49),
    ("W19V", 4.58),
    ("L14N", 4.24),
    ("C11G", 3.91),
    ("E10M", 1.86),
    ("E2W", 3.64),
    ("C11E", 3.8),
    ("T3V", 2.92),
    ("E10Q", 3.42),
    ("C11H", 4.09),
    ("L14D", 4.15),
    ("C11I", 2.55),
    ("E10A", 2.72),
    ("T16W", 2.05),
    ("T16E", 3.83),
    ("Y12A", 3.94),
    ("G4W", 1.68),
    ("Y21W", 3.5),
    ("N13V", 1.47),
    ("S8E", 4.43),
    ("W19N", 5.05),
    ("T3K", 2.67),
    ("N13T", 3.24),
    ("Y5N", 4.2),
    ("C11Y", 3.06),
    ("R20Q", 3.49),
    ("S24K", 4.28),
    ("S7N", 3.89),
    ("L6W", 4.46),
    ("R20C", 2.43),
    ("E15I", 1.84),
    ("V22F", 2.14),
    ("E10K", 3.05),
    ("G4E", 3.56),
    ("E2C", 2.7),
    ("T16G", 3.83),
    ("E15V", 2.25),
    ("V9D", 4.39),
    ("S24C", 4),
    ("V9E", 4),
    ("S23H", 3.26),
    ("T16H", 3.26),
]
